test system: intracellular cAMP, HEK-293 cells; test: Forskolin titration in HEK-293 cells transfected with CPM-hRL/RIIβB biosensor (201325.78.E5); format: cell-based; settings: Homo sapiens, HEK293, CPM-hRL/RIIβB X=4, Y=20 (201325.78.E5), read-out: EC50 of the forskolin response
Endpoint name: EC50 (nM)
// note: answer is a bare numeric in nM

In plain terms, C=C[C@@]1(C)CC(=O)[C@]2(O)[C@@]3(C)[C@@H](O)CCC(C)(C)[C@@H]3[C@H](O)[C@H](OC(C)=O)[C@@]2(C)O1 [forskolin] has a documented EC50 of 59
